Test system: L1210 leukemia ip in BDF1 mice, survival T/C
Test: NCI In Vivo Anticancer Drug Screen. Data for tumor model L1210 Leukemia (intraperitoneal) in B6D2F1 (BDF1) mice
Conditions: endpoint: mean survival time; dose: 5.0 mg/kg/injection; schedule: Q01DX001 (ip); vehicle: saline
Inconclusive results and toxic doses are left out. Rule as the data show it: active = T/C of 150% or more; inactive = T/C below 125%.
Outcome codes: active, inactive

In [3]: df
Out[3]:
                                   compound  assigned_label
0                  CN=C(N)NCCCCCCCCNC(N)=NC        inactive
1      O=[N+]([O-])c1ccc(C2=CSC3=NCCN23)cc1        inactive
2  CC1(C)N=C(N)N=C(N)N1c1cccc(CCCCc2cccc(NC(=O)CBr)c2)c1        inactive
3             c1cc(N2CCOCC2)cc(NC2CCCCC2)n1        inactive
4       CC(=O)Nc1ccc(S(=O)(=O)SC(F)(F)F)cc1        inactive
5  CC1(C(=O)O)NC(C(=O)O)CS1 (stereo not given)        inactive
6                        CC(C)(C)CNC(C)(C)C        inactive
7            Cc1ccc(C(=O)CCCN2CCOCC2)c(C)c1        inactive
8           NC(=O)OCC(CO)(c1ccccc1)c1ccccc1        inactive
9  COC(=O)C(N)Cc1ccc(O)c(N(CCCl)CCCl)c1 (stereo not given)          active
